tested_on: UniProt:P68400
Sequence (P68400 whole entry, looked up): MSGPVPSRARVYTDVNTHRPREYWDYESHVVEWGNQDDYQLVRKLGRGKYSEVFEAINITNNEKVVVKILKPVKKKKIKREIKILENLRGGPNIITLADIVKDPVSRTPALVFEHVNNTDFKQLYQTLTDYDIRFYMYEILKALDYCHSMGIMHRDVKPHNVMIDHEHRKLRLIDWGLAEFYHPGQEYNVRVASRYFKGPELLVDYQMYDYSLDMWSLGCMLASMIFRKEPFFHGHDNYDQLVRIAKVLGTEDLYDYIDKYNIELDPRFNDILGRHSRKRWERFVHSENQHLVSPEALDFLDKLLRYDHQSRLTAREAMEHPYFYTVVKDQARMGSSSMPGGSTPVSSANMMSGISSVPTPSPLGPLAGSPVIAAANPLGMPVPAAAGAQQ
protocol_text: KINOMEscan competition binding
condition_set: compound 10.0 µM
reported_property: kinase still bound, per cent of control (%)

[
  {
    "smiles_representation": "COc1ccc(-c2ccc3c(N4CCOCC4)nc(N4C[C@@H](C)O[C@@H](C)C4)nc3n2)cc1CO",
    "tested_on": "UniProt:P68400",
    "scale_unit": "%",
    "reading": 96
  },
  {
    "smiles_representation": "CCC(=O)N1CCN(c2ccc(-n3c(=O)ccc4cnc5ccc(-c6cnc7ccccc7c6)cc5c43)cc2C(F)(F)F)CC1",
    "tested_on": "UniProt:P68400",
    "scale_unit": "%",
    "reading": 94
  },
  {
    "smiles_representation": "CC(C)n1nc(-c2cc3cc(O)ccc3[nH]2)c2c(N)ncnc21",
    "tested_on": "UniProt:P68400",
    "scale_unit": "%",
    "reading": 16
  },
  {
    "smiles_representation": "COC(=O)Nc1ccc(-c2nc(N3CCOCC3)c3cnn(C4CCN(C(=O)OC)CC4)c3n2)cc1",
    "tested_on": "UniProt:P68400",
    "scale_unit": "%",
    "reading": 62
  }
]
